Assay: Cmax in male Sprague-Dawley rat at 1.5 mg/kg, iv administered as single dose by LC-MS/MS analysis
Format: ADME, organism-based
Design: dose 1.5 mg/kg, route intravenous
Settings: in vivo
Measurement label: Cmax (ng/mL)
Give bare numbers, in ng/mL.

Prompt: Item under review: COC(=O)N1N=C(c2cccc(C)c2)CC1c1cc(OC)c(OC)c(OC)c1 (stereo unspecified) . Reported Cmax?
Completion: 658

* * *

Assay: MRT (0 to t) in female Sprague-Dawley rat at 1.5 mg/kg, iv administered as single dose by LC-MS/MS analysis
Format: ADME, organism-based
Details: in vivo
Measurement label: MRT last
Value and unit, in that order.

Prompt: Which MRT last is listed for COC(=O)N1N=C(c2cccc(C)c2)CC1c1cc(OC)c(OC)c(OC)c1 (stereo unspecified) ?
Completion: 57.6 min

* * *

Tested on: HT-29
Assay: Antiproliferative activity against human HT-29 cells after 48 hrs by MTT assay
Type: functional
Settings: HT-29, 48 h
Measurement label: GI50 (µM)
Answers are plain numbers, in µM.

{"columns": ["Compound", "Result number"],
 "data": [
  ["CCOC(=O)N1N=C(c2cccc(OC)c2)CC1c1cc(OC)c(OC)c(OC)c1 (centres undefined)", 7.86]
]}

Provide the reported GI50 of each entry below, same order.
1. COC(=O)N1N=C(c2ccccc2)CC1c1cc(OC)c(OC)cc1OC (centres undefined)
2. COC(=O)N1N=C(c2ccc(OC)c(OC)c2)CC1c1cc(OC)c(OC)c(OC)c1 (centres undefined)
3. CCOC(=O)N1N=C(c2ccc(OC)cc2)CC1c1cc(OC)c(OC)c(OC)c1 (centres undefined)
4. COC(=O)N1N=C(c2cccc(O)c2)CC1c1cc(OC)c(OC)c(OC)c1 (centres undefined)
5. CCOC(=O)N1N=C(c2cccc(O)c2)CC1c1cc(OC)c(OC)c(OC)c1 (centres undefined)

Completion:
14.9
9.2
6.73
1.35
11.6

* * *

Assay: Clearance in Sprague-Dawley rat at 1.5 mg/kg, iv administered as single dose by LC-MS/MS analysis
Assay type: ADME, organism-based
Conditions: in vivo
Measurement label: clearance (L/h/kg)
Numbers only, in L/h/kg.

Prompt: Consider the molecule shown here: COC(=O)N1N=C(c2cccc(C)c2)CC1c1cc(OC)c(OC)c(OC)c1 (stereo unspecified) What is its recorded clearance?
Completion: 3.92

* * *

Test system: HepG2
Experiment: Antiproliferative activity against human HepG2 cells after 48 hrs by MTT assay
Type: functional
Conditions: HepG2, 48 h
Measurement label: GI50 (µM)
Numbers only, in µM.

{"columns": ["Compound", "Experimental system", "GI50 / µM"],
 "data": [
  ["COC(=O)N1N=C(c2ccccc2)CC1c1cc(OC)c(OC)cc1OC (centres undefined)", "HepG2", 6.53],
  ["COC(=O)N1N=C(c2ccccc2)CC1c1c(OC)cc(OC)cc1OC (centres undefined)", "HepG2", 7.49],
  ["COC(=O)N1N=C(c2ccccc2)CC1c1ccc(OC)c(O)c1 (centres undefined)", "HepG2", 9.81],
  ["COC(=O)N1N=C(c2cccc(OC)c2)CC1c1cc(OC)c(OC)c(OC)c1 (centres undefined)", "HepG2", 1.87],
  ["CCOC(=O)N1N=C(c2ccc(OC)cc2)CC1c1cc(OC)c(OC)c(OC)c1 (centres undefined)", "HepG2", 9.4]
]}

For each of the items listed, what is its GI50?
1. COC(=O)N1N=C(c2ccc(OC)c(OC)c2)CC1c1cc(OC)c(OC)c(OC)c1 (centres undefined)
2. COC(=O)N1N=C(c2cccc(Cl)c2)CC1c1cc(OC)c(OC)c(OC)c1 (centres undefined)
3. COC(=O)N1N=C(c2cc(OC)c(OC)c(OC)c2)CC1c1cc(OC)c(OC)c(OC)c1 (centres undefined)
4. COC(=O)N1N=C(c2ccc(OC)cc2)CC1c1cc(OC)c(OC)c(OC)c1 (centres undefined)
5. COC(=O)N1N=C(c2ccccc2)CC1c1ccc(OC)c(OC)c1 (centres undefined)
6. COC(=O)N1N=C(c2ccccc2)CC1c1cc(OC)c(OC)c(OC)c1 (centres undefined)
7. CCOC(=O)N1N=C(c2ccccc2)CC1c1cc(OC)c(OC)c(OC)c1 (centres undefined)

Completion:
1: 4.21; 2: 1.24; 3: 9.72; 4: 1.71; 5: 9.15; 6: 3.95; 7: 5.95
